Readings of Fluorescence Intensity for the listed molecules
- Tested on: HEK293 cells
- experimental context: Exp 8; disaccharide 125 mM in medium; AAV3B 1×10^8 vg/well; Day 3
readout kind: Fluorescence Intensity

molecule="OC[C@H]1O[C@@H](O[C@H]2[C@H](O)[C@@H](O)C(O)O[C@@H]2CO)[C@H](O)[C@@H](O)[C@H]1O (stereo partly shown)" reading=1880.3
molecule=OC[C@H]1O[C@H](O[C@H]2[C@H](O)[C@@H](O)[C@H](O)O[C@@H]2CO)[C@H](O)[C@@H](O)[C@@H]1O reading=1833.5
molecule=OC[C@H]1O[C@H](O[C@H]2O[C@H](CO)[C@@H](O)[C@H](O)[C@H]2O)[C@H](O)[C@@H](O)[C@@H]1O reading=1249.0
molecule=OC[C@H]1O[C@@](CO)(O[C@H]2O[C@H](CO)[C@@H](O)[C@H](O)[C@H]2O)[C@@H](O)[C@@H]1O reading=1760.5

----------
- Tested on: HEK293 cells
- experimental context: Exp 8; disaccharide 150 mM; AAV3B 1×10^8 vg/well; Day 1
- Description: As the first procedure, 4 methods of the addition were carried out, including adding sucrose immediately (5 minutes or less) after the administration of the AAV vector, and the administration of the AAV vector immediately (5 minutes or less) after, 10 minutes after or 1 hour after adding sucrose to cells. In the same manner as the above-described procedure, the GFP expression level was measured 3 days later. […]
We begin with a simple list: items and their reported Fluorescence Intensity.
readout kind: Fluorescence Intensity

compound=OC[C@H]1O[C@H](O[C@H]2O[C@H](CO)[C@@H](O)[C@H](O)[C@H]2O)[C@H](O)[C@@H](O)[C@@H]1O reading=230.7
compound="OC[C@H]1O[C@@H](O[C@H]2[C@H](O)[C@@H](O)C(O)O[C@@H]2CO)[C@H](O)[C@@H](O)[C@H]1O (stereo partly shown)" reading=503.2
compound=OC[C@H]1O[C@H](O[C@H]2[C@H](O)[C@@H](O)[C@H](O)O[C@@H]2CO)[C@H](O)[C@@H](O)[C@@H]1O reading=532.7
compound=OC[C@H]1O[C@@](CO)(O[C@H]2O[C@H](CO)[C@@H](O)[C@H](O)[C@H]2O)[C@@H](O)[C@@H]1O reading=434.5
